# System: VDR homodimer (NR concentration 270 nM)
# procedure.details: PBM binding z-score (relative to random genomic background probes); higher = stronger binding; sequences stand for … in GC…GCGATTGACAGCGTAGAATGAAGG
Answer no if PBM binding z-score is under 0.8, and yes if it is 0.8 or more.

seq: TCTAGCAGGCCAGAGTGTCACTCAAGAGGTACGG
category.label: no
--
seq: GCATATAGGTAATAAAAGGTGAAAGTCCGATTGT
category.label: no
--
seq: CCAGACAGGTGAGAAGGTAACTCGGCCTCGATTA
category.label: no
--
seq: CCGACTGGGGCATAAGGTTACCACAAGCCAGCCC
category.label: no
--
seq: ATCTCTAGGTAAAGTTCTGTGAAAGATCGATAGA
category.label: no

*Q* Does PBM binding z-score meet or surpass 0.8 for ATATGTAGGTTAGCTGGGGCCATTCAGACTAGGC ?
*A* yes

*Q* Does PBM binding z-score meet or surpass 0.8 for TTATATAGGTAATACAGGTGAAAGTCGGCATCTA ?
*A* no

*Q* Does PBM binding z-score meet or surpass 0.8 for GCGACTGGGTCAAAGCAGGTTACCATAAGGTTGG ?
*A* no

*Q* Does PBM binding z-score meet or surpass 0.8 for GCTATTAGTTGAATGGGCAACCGAATGATTCTCG ?
*A* no

*Q* Does PBM binding z-score meet or surpass 0.8 for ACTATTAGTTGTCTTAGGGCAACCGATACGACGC ?
*A* no

*Q* Does PBM binding z-score meet or surpass 0.8 for CGAACGAGGGCATGAGTTCATAGCAAATGCCGAT ?
*A* yes
